- Protocol notes: Acute toxicity, LD50, ICR mouse
- Measurement conditions: in vivo, im, male, intramuscular
Where a name gives a salt, the structure may show the parent alone.
Endpoint name: LD50 (mg/kg)
Answer with a number only, understood to be in mg/kg.

Dear colleague, please send me the reported LD50 for CCCC(=O)N1CCCN(c2nc(N)c3cc(OC)c(OC)cc3n2)CC1 [bunazosin hydrochloride] when you can. 660

----------
- Protocol notes: Acute toxicity, LD50, Wistar rat
- Measurement conditions: in vivo, im, female, intramuscular
Where a name gives a salt, the structure may show the parent alone.
Endpoint name: LD50
Please state the number and follow it with the unit.

Dear colleague, please send me the reported LD50 for CCCC(=O)N1CCCN(c2nc(N)c3cc(OC)c(OC)cc3n2)CC1 [bunazosin hydrochloride] when you can. 152 mg/kg
